- targetEntity: UniProt Q14524
- Sequence (Q14524 whole entry): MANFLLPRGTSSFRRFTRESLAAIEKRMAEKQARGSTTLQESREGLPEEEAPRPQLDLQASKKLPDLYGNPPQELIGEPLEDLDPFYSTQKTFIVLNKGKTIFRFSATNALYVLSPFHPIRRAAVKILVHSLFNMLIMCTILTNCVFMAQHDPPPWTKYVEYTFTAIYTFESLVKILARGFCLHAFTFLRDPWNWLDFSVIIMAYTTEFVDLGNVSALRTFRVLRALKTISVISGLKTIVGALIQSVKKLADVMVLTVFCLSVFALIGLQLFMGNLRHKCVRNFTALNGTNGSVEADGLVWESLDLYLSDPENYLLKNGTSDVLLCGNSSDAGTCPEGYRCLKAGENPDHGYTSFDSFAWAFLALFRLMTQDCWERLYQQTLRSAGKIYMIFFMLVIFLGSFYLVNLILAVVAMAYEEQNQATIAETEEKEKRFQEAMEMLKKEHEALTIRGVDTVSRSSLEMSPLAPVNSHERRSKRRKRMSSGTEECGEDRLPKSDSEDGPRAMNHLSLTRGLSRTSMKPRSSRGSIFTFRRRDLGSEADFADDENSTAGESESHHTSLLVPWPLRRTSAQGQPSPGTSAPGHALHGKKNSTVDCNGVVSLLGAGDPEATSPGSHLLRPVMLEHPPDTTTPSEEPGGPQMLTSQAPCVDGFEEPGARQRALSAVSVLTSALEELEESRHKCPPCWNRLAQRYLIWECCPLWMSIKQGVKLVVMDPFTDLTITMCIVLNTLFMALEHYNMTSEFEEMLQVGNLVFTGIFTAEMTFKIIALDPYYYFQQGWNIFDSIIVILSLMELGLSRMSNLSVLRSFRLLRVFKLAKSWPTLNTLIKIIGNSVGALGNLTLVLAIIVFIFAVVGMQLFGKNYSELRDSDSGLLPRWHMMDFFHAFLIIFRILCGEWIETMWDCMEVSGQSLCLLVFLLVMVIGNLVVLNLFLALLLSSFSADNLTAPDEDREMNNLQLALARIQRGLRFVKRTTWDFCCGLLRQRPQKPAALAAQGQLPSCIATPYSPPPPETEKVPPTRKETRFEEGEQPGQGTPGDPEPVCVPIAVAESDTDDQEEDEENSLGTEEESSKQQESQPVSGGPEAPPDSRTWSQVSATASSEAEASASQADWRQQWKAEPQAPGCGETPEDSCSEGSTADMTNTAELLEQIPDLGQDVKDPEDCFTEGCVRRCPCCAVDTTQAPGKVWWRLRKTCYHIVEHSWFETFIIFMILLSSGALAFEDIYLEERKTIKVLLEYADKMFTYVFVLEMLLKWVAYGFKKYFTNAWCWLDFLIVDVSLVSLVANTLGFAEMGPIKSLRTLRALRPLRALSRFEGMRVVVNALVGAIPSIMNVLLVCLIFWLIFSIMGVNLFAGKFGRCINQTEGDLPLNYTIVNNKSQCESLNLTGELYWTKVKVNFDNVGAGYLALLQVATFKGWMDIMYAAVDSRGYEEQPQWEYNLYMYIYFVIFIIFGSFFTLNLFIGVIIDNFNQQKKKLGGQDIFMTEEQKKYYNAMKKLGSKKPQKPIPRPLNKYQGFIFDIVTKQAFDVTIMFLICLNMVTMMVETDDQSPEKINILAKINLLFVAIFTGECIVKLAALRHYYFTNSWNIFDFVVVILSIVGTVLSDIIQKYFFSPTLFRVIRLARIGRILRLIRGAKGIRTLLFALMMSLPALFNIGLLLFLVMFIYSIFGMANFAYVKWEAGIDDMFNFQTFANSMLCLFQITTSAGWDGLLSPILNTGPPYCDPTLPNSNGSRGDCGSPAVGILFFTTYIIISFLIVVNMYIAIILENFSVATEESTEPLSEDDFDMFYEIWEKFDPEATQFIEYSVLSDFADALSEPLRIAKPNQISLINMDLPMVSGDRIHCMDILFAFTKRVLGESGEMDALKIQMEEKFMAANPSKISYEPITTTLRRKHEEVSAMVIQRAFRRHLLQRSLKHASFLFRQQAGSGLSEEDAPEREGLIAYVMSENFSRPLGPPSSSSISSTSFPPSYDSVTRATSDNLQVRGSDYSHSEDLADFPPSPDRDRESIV
- testProtocol: Sodium channel selectivity test, patch-clamp, Nav1.5
- Type: cell-based
- conditionLabel: human, read-out: Nav1.5 Inhibition rate (%)
quantity: inhibition at 30 µM (%)
Output spec: scalar in %, unitless text.

Lookup result for COc1c([C@H]2[C@H](C(=O)Nc3ccnc(C(N)=O)c3)O[C@@](C)(C(F)(F)F)[C@H]2C)ccc(F)c1F [Reference compound, reference compound] ; measured inhibition at 30 µM: 72.2

----------
- testProtocol: Pharmacokinetic determination in SD rats
- Assay type: in vivo
- conditionLabel: rat, in vivo, po, gavage 10 mg/kg, plasma, read-out: Area under the curve AUC0-t
quantity: AUC(0-t) at 24 h (ng·h/mL)
Output spec: scalar in ng·h/mL, unitless text.

Lookup result for COCCOc1c([C@H]2[C@H](C(=O)Nc3ccc(F)c(C(=N)NO)c3)O[C@@](C)(C(F)(F)F)[C@H]2C)ccc(F)c1F ; measured AUC(0-t) at 24 h: 4650

Origin of the recorded values: patent EP4775574A1
